assay system: T1, PVR conjugated to Histidine tag (PVR-HIS, Sino Cat. no. 10109-H08H) (Homo sapiens (Human), UniProt P15151 21-343)
T1 construct: Bought reagent; also called PVR-HIS tagged
T1 sequence: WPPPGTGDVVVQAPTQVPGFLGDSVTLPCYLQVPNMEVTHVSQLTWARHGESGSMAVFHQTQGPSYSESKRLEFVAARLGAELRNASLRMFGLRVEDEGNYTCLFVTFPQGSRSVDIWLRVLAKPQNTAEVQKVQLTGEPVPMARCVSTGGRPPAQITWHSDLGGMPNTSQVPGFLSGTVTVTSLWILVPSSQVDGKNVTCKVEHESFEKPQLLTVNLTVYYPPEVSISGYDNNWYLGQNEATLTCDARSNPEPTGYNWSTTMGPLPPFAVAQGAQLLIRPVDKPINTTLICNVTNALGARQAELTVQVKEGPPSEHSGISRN
procedure text: SPR (Biacore T200), antibody captured on Protein A chip, PVR-HIS as analyte, 1:1 binding
value kind: Kd (nM)
Give a bare numeral; the unit nM is implied.

Q) Which Kd value belongs to VH0/Vκ0 Thr56 (antibody, V domains shown, chimeric 5B9 N56 substitution variant; also called N56T) VH: QVQLQQSGAELMKPGASVKISCKATGYTFSNYWIEWIKQRPGHGLEWIGEIFPGSGRINFNEKFKGKATFTADTSSDTTYMQLSSLTSADSAVYYCARTKIYGNSFDYWGQGTTLTVSP VL: DIMMTQSHKFMSTSVGDRVNITCKASQDVGTAVVWYQQKPGQSPKLLIYWASSRHTGVPDRFTGSGSGTDFTLTISNVQSEDLSDYFCQQYSRYPLTFGAGTKLELK ?
A) 4.4

Q) Also VH0/Vκ0 Ser56 (antibody, V domains shown, chimeric 5B9 N56 substitution variant; also called N56S) VH: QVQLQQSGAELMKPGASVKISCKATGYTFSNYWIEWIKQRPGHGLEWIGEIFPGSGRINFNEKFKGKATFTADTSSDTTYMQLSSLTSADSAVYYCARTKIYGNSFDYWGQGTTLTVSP VL: DIMMTQSHKFMSTSVGDRVNITCKASQDVGTAVVWYQQKPGQSPKLLIYWASSRHSGVPDRFTGSGSGTDFTLTISNVQSEDLSDYFCQQYSRYPLTFGAGTKLELK , if possible.
A) 4.61

Q) Next entry: chimeric anti-PVR antibody 5B9 wild type, IgG4 (S241P), VH0/VK0 (antibody, V domains shown, Mouse/human chimeric antibody with human IgG4 (S241P) constant region; also called WT; parental N56 variant (VH0VK0)) VH: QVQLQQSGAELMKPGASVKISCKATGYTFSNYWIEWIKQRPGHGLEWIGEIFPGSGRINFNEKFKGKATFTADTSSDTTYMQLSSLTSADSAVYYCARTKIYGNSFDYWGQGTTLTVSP VL: DIMMTQSHKFMSTSVGDRVNITCKASQDVGTAVVWYQQKPGQSPKLLIYWASSRHNGVPDRFTGSGSGTDFTLTISNVQSEDLSDYFCQQYSRYPLTFGAGTKLELK
A) 5.12

Q) Same thing, different binder: chimeric 5B9 N56D variant, IgG4 (S241P) (antibody, name in Kabat numbering, V domains shown, Human IgG4 (S241P) constant region) VH: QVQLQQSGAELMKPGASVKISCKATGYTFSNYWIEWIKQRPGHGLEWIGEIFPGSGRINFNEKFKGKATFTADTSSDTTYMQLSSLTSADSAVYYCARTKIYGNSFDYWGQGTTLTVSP VL: DIMMTQSHKFMSTSVGDRVNITCKASQDVGTAVVWYQQKPGQSPKLLIYWASSRHDGVPDRFTGSGSGTDFTLTISNVQSEDLSDYFCQQYSRYPLTFGAGTKLELK
A) 3.27

Q) // query: chimeric 5B9 N56E variant, IgG4(S241P) N56E_VH0/VK0 (antibody, name in Kabat numbering, V domains shown, Human IgG4 (S241P) constant region; also called chimeric N56E mutated parental antibody) VH: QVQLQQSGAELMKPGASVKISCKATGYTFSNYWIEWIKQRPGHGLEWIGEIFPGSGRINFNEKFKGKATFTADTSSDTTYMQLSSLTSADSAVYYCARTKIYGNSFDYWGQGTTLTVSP VL: DIMMTQSHKFMSTSVGDRVNITCKASQDVGTAVVWYQQKPGQSPKLLIYWASSRHEGVPDRFTGSGSGTDFTLTISNVQSEDLSDYFCQQYSRYPLTFGAGTKLELK
A) 3.55

Q) What do you get for VH0/Vκ0 Pro56 (antibody, V domains shown, chimeric 5B9 N56 substitution variant; also called N56P) VH: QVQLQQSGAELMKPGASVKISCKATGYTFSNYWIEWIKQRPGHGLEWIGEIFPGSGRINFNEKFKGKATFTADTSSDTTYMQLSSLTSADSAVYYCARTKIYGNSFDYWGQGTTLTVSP VL: DIMMTQSHKFMSTSVGDRVNITCKASQDVGTAVVWYQQKPGQSPKLLIYWASSRHPGVPDRFTGSGSGTDFTLTISNVQSEDLSDYFCQQYSRYPLTFGAGTKLELK ?
A) 7.58

Q) # iterate: VH0/Vκ0 Ala56 (antibody, V domains shown, chimeric 5B9 N56 substitution variant; also called N56A) VH: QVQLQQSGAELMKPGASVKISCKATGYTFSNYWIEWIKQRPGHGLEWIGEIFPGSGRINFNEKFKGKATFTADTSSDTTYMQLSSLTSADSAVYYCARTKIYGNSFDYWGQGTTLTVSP VL: DIMMTQSHKFMSTSVGDRVNITCKASQDVGTAVVWYQQKPGQSPKLLIYWASSRHAGVPDRFTGSGSGTDFTLTISNVQSEDLSDYFCQQYSRYPLTFGAGTKLELK
A) 4.57
